- system-under-test: T1, AD4 polypeptide (cloned AD4 fragment of CMV AD169 envelope glycoprotein B) (human cytomegalovirus strain AD169, UniProt P06473 112-438)
- T1 construct: also called antigenic domain 4
- protocol-details: SPR (Biacore T200), antibody captured on anti-human IgG CM5 chip, AD4 polypeptide as analyte, 1:1 model
measured-endpoint: pKd
# reply with the number alone; pKd is -log10 of concentration in mol/L

Some solved entries appear below for comparison.
C3 (antibody, V domains shown, Human IgG, transiently expressed in HEK293) VH: QVQLQESGPGLVKPLETLSLTCTVSGGSISSGSFYWTWIRQHPGKGLEWIGYIHSSGTTYYNPSLKSRLNISRDTSKNQFTLKLSSVTAADTAVYYCAKEIIQWPRRWFDPWGQGTLVTVSS VL: QSMLTQPPSVSAAPGQKVIISCSGSSSNIGNNYVNWYQQLPGTAPKLLIYDNDKRPSGIPDRFSGSKSGTSATLGITGLQTGDEADYYCGTWDSTLTAGVFGGGTKLTVLG: 9.26
C5 (antibody, V domains shown, Human IgG, transiently expressed in HEK293) VH: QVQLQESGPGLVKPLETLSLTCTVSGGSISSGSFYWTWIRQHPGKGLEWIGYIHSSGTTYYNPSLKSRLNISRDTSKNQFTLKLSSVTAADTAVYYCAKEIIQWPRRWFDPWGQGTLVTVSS VL: QSMLTQPPSVSAAPGQKVIISCSGSSSNIGNNFVNWYQKFPGTAPKLLIYDNDKRPSGIPDRFSGSKSGTSATLGITGLQTGDEAEYYCGTWDSSLTAGVFGGGTTLTVLG: 9.56
C10 (antibody, V domains shown, Human IgG, transiently expressed in HEK293) VH: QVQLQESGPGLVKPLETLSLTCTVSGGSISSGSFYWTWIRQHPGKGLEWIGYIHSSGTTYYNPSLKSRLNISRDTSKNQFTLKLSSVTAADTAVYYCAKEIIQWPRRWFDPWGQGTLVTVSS VL: QSVLTQPPSASGTPGQRVTISCSGSSSNIGSNYIDWYQQLPGTGPQLLTYRNNQRPSGVPDRFSGSKSGTSASLAISGLRSEDEADYYCASWDDSLSSPVFGGGTKLTVLG: 8.40

Now for another entry.
So what does the record say about pKd for C4 (antibody, V domains shown, Human IgG, transiently expressed in HEK293) VH: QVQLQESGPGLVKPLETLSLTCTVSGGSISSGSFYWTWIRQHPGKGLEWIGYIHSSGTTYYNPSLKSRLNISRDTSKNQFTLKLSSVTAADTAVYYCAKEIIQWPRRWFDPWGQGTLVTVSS VL: QSVLTQPPSVSAAPGQKVIISCSGSGSNIGSHYVNWYQQLPGAAPKLLIYDNDKRPSGIPDRFSGSKSGTSATLAITGLQTGDEADYHCATWDGTLTAGVFGGGTKLTVLG ?
9.16

Values compiled from patent US20150110794A1.
